System: Monocotyledonous and dicotyledonous test plants
Assay: Herbicidal action, application pre-emergence (Example B1)
Format: in vivo
Settings: 1000 g/ha, Digitaria, scale 10=total damage to plant, 0=no damage to plant, evaluated after 9 or 13 days
Exercise: state measured Herbicidal action on Digitaria (damage rating) for each of the compounds provided.
Answers are plain numbers.

Field: example entries. Status: answers known.
INSERT INTO assay_data (compound, observed) VALUES
  ('CN=S(=O)(Cc1c(F)cccc1F)C1=NOC(C)(C)C1 (stereo not shown)', 7),
  ('CC(Cl)OC(=O)N=S(=O)(Cc1c(F)cccc1F)C1=NOC(C)(C)C1 (mixture of isomers)', 8),
  ('CC1(C)CC(S(=N)(=O)Cc2ccccc2OC(F)F)=NO1 (stereo not shown)', 9),
  ('CC1(C)CC(S(=N)(=O)C(Cl)c2c(F)cccc2F)=NO1 (mixture of isomers)', 10),
  ('CC1(C)CC(S(=O)(Cc2c(F)cccc2F)=NC(=O)c2ccccc2)=NO1 (stereo not shown)', 5),
  ('CC1(C)CC(S(=N)(=O)Cc2ccc(F)cc2F)=NO1 (stereo not shown)', 10),
  ('CC1(C)CC(S(=O)(Cc2c(F)cccc2F)=NC(=O)C(F)(F)F)=NO1 (stereo not shown)', 10),
  ('CC1(C)CC(S(=N)(=O)C(F)(F)c2c(F)cccc2F)=NO1 (stereo not shown)', 10),
  ('CC1(C)CC(S(=N)(=O)Cc2cccc(F)c2F)=NO1 (stereo not shown)', 8),
  ('CC(C)(C)OC(=O)N=S(=O)(Cc1c(F)cccc1F)C1=NOC(C)(C)C1 (stereo not shown)', 7);

Please state Herbicidal action on Digitaria (damage rating) for every compound in the list that follows.
1. CC(c1c(F)cccc1F)S(=O)(=NC(=O)C(F)(F)F)C1=NOC(C)(C)C1 (stereo not shown) [1.20]
2. CC1(C)CC(S(=N)(=O)Cc2c(F)cccc2C(F)(F)F)=NO1 (stereo not shown)
3. CC1(C)CC(S(=N)(=O)Cc2ccccc2C(F)(F)F)=NO1 (stereo not shown)
4. CC1(C)CC(S(=O)(=NC(=O)c2ccccc2)C(F)c2c(F)cccc2F)=NO1 (stereo not shown)

1: 8; 2: 10; 3: 8; 4: 8

Hey, quick one: what's Herbicidal action on Digitaria (damage rating) for each of these?
1. CC1(C)CC(S(=N)(=O)Cc2ccccc2OC(F)(F)F)=NO1 (stereo not shown)
2. CC1(C)CC(S(=O)(Cc2c(F)cccc2F)=NC(=O)c2ccc(Cl)cc2)=NO1 (stereo not shown)
3. CC1(C)CC(S(=O)(Cc2c(F)cccc2F)=NS(=O)(=O)C(F)(F)F)=NO1 (stereo not shown)
4. CC(c1c(F)cccc1F)S(=O)(=NC(=O)C(F)(F)F)C1=NOC(C)(C)C1 (stereo not shown) [1.19]
5. CC1(C)CC(S(=O)(Cc2c(F)cccc2F)=N[N+](=O)[O-])=NO1 (stereo not shown)

1: 9; 2: 8; 3: 7; 4: 9; 5: 9
